target: U(702-777) (human, UniProt Q00839 702-777)
Sequence (Q00839 702-777): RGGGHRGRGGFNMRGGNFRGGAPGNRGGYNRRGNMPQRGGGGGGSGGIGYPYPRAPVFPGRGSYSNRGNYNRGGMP
method_summary: fluorescence anisotropy
attribute_measured: Kd (µM)
# output: bare number, implied unit µM

Worked cases, answers included:
binder	attribute_measured	endpoint_value
Antisense MTRNR2L6 (structured_RNA) RNA: GGCUACACCAUUAGGAUGUCCUGAUCCAACAUCGAGGUCGUAAACCCUAUUGUCAAUAUGGACUCUAGAAUAGGAUUGCGCUGUUAUCCCUAGGGUAACUUGUUCCGUUGAUCAAAUUAUUGGGUCAAUAUAUGUAUAG	Kd	3.9
MTRNR2L6 (structured_RNA) RNA: GCUAUACAUAUAUUGACCCAAUAAUUUGAUCAACGGAACAAGUUACCCUAGGGAUAACAGCGCAAUCCUAUUCUAGAGUCCAUAUUGACAAUAGGGUUUACGACCUCGAUGUUGGAUCAGGACAUCCUAAUGGUGUAGC	Kd	4.2

Q) Suppose we examine the binder Syncrip (structured_RNA) RNA: GAGGGAGGGGAGGGAAGGGAAGGGAAGGGAAGGGGGGGUCACGCGGGGGCGCGCGCGCGCACCGGGAGCGCGCUCGGAGGCGAGUGGAACUGGAUCGGGUUUGCUGCCAGCGGCGUGAGCUUC ; what Kd value has been reported?
A) 0.45

Q) Next binder: Antisense Syncrip (structured_RNA) RNA: GAAGCUCACGCCGCUGGCAGCAAACCCGAUCCAGUUCCACUCGCCUCCGAGCGCGCUCCCGGUGCGCGCGCGCGCCCCCGCGUGACCCCCCCUUCCCUUCCCUUCCCUUCCCUCCCCUCCCUC
A) 14
